systemName: rat CYP2C12, Cyp2c12 (gene 25011)
assayName: NVS_ADME_rCYP2C12: NovaScreen (NVS) CYP450-related Enzyme Activity (ADME) Assay for rat CYP2C12 (AID 2283119)
Results filed as inconclusive are left out. Calls of active or inactive are those of the source. The calls were made as follows: active = hit-call score of the fitted dose curve at least 0.9, where 1 is the maximum; inconclusive = response in the unintended direction; inactive = score below 0.9.
measurementType: AC50

O=C(NC(=O)c1c(F)cccc1F)Nc1ccc(OC(F)(F)C(F)OC(F)(F)F)c(Cl)c1 (stereo unspecified)
inactive
N#Cc1c(Cl)c(Cl)c(Cl)c(C#N)c1Cl
inactive
[2H]C1([2H])[n+]2ccccc2-c2cccc[n+]2C1([2H])[2H]
inactive
O=C(Nc1ccccc1)Nc1cnns1
inactive
CC(C)(C)C(O)/C(=C\c1ccc(Cl)cc1Cl)n1cncn1 (stereo unspecified)
1250 nM (active)
O=C1c2ccccc2C(=O)N1SC(Cl)(Cl)Cl
inactive

---

assayName: Tanguay_ZF_120hpf_ActivityScore_legacy: (Legacy) Oregon State University Tanguay Lab 120 Hour Post-fertilization zebrafish Assay Score for Activity (AID 2283742);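 as to AC50: dechorionated Tropical 5D wild-type zebrafish embryos held singly per well; static exposure from 6 hpf until 120 hpf at 28 °C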
Active and inactive are the calls of the source. The calls were made as follows: active = hit-call score of the fitted dose curve at least 0.9, where 1 is the maximum; inconclusive = response in the unintended direction; inactive = score below 0.9.
measurementType: AC50

O=C(O)CCCOc1ccc(Cl)cc1Cl
inactive
CC1(c2ccc(Oc3ccccc3)cc2)OC(=O)N(Nc2ccccc2)C1=O (configuration not stated)
inactive
N#Cc1c(Cl)c(Cl)c(Cl)c(C#N)c1Cl
45 µM (active)
CCC(C)(NC(=O)c1cc(Cl)c(C)c(Cl)c1)C(=O)CCl (configuration not stated)
inactive
Cc1[nH]c(=O)n(C(C)(C)C)c(=O)c1Cl
inactive
CC(C)(C)C(O)/C(=C\c1ccc(Cl)cc1Cl)n1cncn1 (configuration not stated)
94.2 µM (active)
CC(C)N(C(=O)COc1nnc(C(F)(F)F)s1)c1ccc(F)cc1
inactive
O=S1OCC2C(CO1)C1(Cl)C(Cl)=C(Cl)C2(Cl)C1(Cl)Cl (configuration not stated)
inactive
CC(C)OC(=O)Nc1cccc(Cl)c1
39.2 µM (active)
O=[N+]([O-])c1c(Cl)c(Cl)c(Cl)c(Cl)c1Cl
inactive
CCc1ccc(C(=O)NN(C(=O)c2cc(C)cc(C)c2)C(C)(C)C)cc1
inactive
CNC(=O)/C=C(\C)OP(=O)(OC)OC
inactive

---

Read-out: Macrophage colony-stimulating factor (MCSF), CSF1 (gene 1435)
assayName: BSK_CASM3C_MCSF: BioMAP Diversity Plus: CASM3C Assay for Macrophage colony-stimulating factor (MCSF) Biomarker Activity (AID 2283044);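 also: M-CSF protein amount quantified by ELISA after 24 h exposure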
experimentalContext: primary human coronary artery smooth muscle cells; actives raise or lower the signal
Calls of active or inactive are those of the source. The calls were made as follows: active = hit-call score of the fitted dose curve at least 0.9, where 1 is the maximum; inactive = score below 0.9.
Outcome codes: True (active), False (inactive)

CCS(=O)(=O)c1cccnc1S(=O)(=O)NC(=O)Nc1nc(OC)cc(OC)n1
False
C#CCN1C(=O)COc2cc(F)c(N3C(=O)C4=C(CCCC4)C3=O)cc21
False
COP(=S)(OC)Oc1ccc(SC)c(C)c1
False
CC(C)N(C(=O)COc1nnc(C(F)(F)F)s1)c1ccc(F)cc1
False
C[C@H]1[C@H](c2ccc(Cl)cc2)SC(=O)N1C(=O)NC1CCCCC1
False
COP(=S)(OC)Oc1ccc([N+](=O)[O-])cc1
False
CCCN(CCC)c1c([N+](=O)[O-])cc(C(F)(F)F)cc1[N+](=O)[O-]
False
Oc1ccc(Cl)cc1Cc1ccccc1
True
CC1(C)C(C=C(Cl)Cl)C1C(=O)OC(C#N)c1ccc(F)c(Oc2ccccc2)c1 (stereo unspecified)
False
COC(=O)c1ccccc1CS(=O)(=O)NC(=O)Nc1nc(OC)cc(OC)n1
False
CCOC1Oc2ccc(OS(C)(=O)=O)cc2C1(C)C (stereo unspecified)
False

---

assayName: ATG_M_61_XSP2: Attagene TRANS-FACTORIAL Multi-Species (XSP2) HepG2 Assay for M61 Transcription Factor (Internal Marker) (AID 2283835);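 also: reporter mRNA of an internal background marker read by RT-PCR and capillary electrophoresis; active means a rise in signal above the DMSO baseline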
Records with an inconclusive call do not appear. Calls of active or inactive are those of the source. How the source made its calls: active means hit-call score of the fitted dose curve at least 0.9, where 1 is the maximum; inactive means score below 0.9.
measurementType: outcome

CC(C)(C)C(O)/C(=C\c1ccc(Cl)cc1Cl)n1cncn1 (centres undefined)
inactive
Oc1ccc(Cl)cc1Cc1ccccc1
inactive
COP(=S)(OC)Oc1ccc(SC)c(C)c1
inactive
Oc1cc(Cl)ccc1Oc1ccc(Cl)cc1Cl
inactive

---

Read-out: Interleukin-8 (IL8), CXCL8 (gene 3576)
assayName: BSK_SAg_IL8: BioMAP Diversity Plus: SAg Assay for Interleukin-8 (IL8) Biomarker Activity (AID 2283094)
experimentalContext: primary human HUVEC with PBMC; actives raise or lower the signal
Activity calls are given as the source filed them. The calls were made as follows: active = hit-call score of the fitted dose curve at least 0.9, where 1 is the maximum; inactive = score below 0.9.
Outcome codes: active, inactive

CN1CSC(=S)N(C)C1
active
C[C@H]1[C@H](c2ccc(Cl)cc2)SC(=O)N1C(=O)NC1CCCCC1
active
O=C(O)CCCOc1ccc(Cl)cc1Cl
inactive
COC(=O)c1ccccc1CS(=O)(=O)NC(=O)Nc1nc(OC)cc(OC)n1
inactive
O=S(=O)(O)C(F)(F)C(F)(F)C(F)(F)C(F)(F)C(F)(F)C(F)(F)C(F)(F)C(F)(F)F
inactive
O=C(Nc1ccccc1)Nc1cnns1
inactive
CC1(C)C(C=C(Cl)Cl)C1C(=O)OC(C#N)c1ccc(F)c(Oc2ccccc2)c1 (stereo unspecified)
inactive
CC(C)OC(=O)Nc1cccc(Cl)c1
inactive
CC1(c2ccc(Oc3ccccc3)cc2)OC(=O)N(Nc2ccccc2)C1=O (stereo unspecified)
active
O=[N+]([O-])/N=C1\NCCN1Cc1ccc(Cl)nc1
inactive
CNC(=O)/C=C(\C)OP(=O)(OC)OC
inactive
O=C1c2ccccc2C(=O)N1SC(Cl)(Cl)Cl
inactive
O=[N+]([O-])c1c(Cl)c(Cl)c(Cl)c(Cl)c1Cl
inactive
O=S1OCC2C(CO1)C1(Cl)C(Cl)=C(Cl)C2(Cl)C1(Cl)Cl (stereo unspecified)
active
N#Cc1c(Cl)c(Cl)c(Cl)c(C#N)c1Cl
active
COP(=S)(OC)Oc1ccc(SC)c(C)c1
inactive

---

Read-out: Protein phosphatase 2A (PPP2R4), PTPA (gene 5524)
assayName: LTEA_HepaRG_PPP2R4: Life Technologies and Expression Analysis (LTEA) Assay for Protein phosphatase 2A (PPP2R4) using HepaRG (AID 2283522)
experimentalContext: mRNA level, 48 h; actives raise or lower the signal
Activity calls are given as the source filed them. Rule for the calls: active = hit-call score of the fitted dose curve at least 0.9, where 1 is the maximum; inactive = score below 0.9.
Outcome codes: label 1 = active, label 0 = inactive

CC[C@H](C)[C@H]1O[C@]2(C=C[C@@H]1C)C[C@@H]1C[C@@H](C/C=C(\C)[C@@H](O[C@H]3C[C@H](OC)[C@@H](O[C@H]4C[C@H](OC)[C@@H](O)[C@H](C)O4)[C@H](C)O3)[C@@H](C)/C=C/C=C3\CO[C@@H]4[C@H](O)C(C)=C[C@@H](C(=O)O1)[C@]34O)O2 (tested in a mixture with another compound)
label 1
Oc1cc(Cl)ccc1Oc1ccc(Cl)cc1Cl
label 0
COc1nn(CSP(=S)(OC)OC)c(=O)s1
label 0
CCC(C)(C)C(=O)OC1=C(c2ccc(Cl)cc2Cl)C(=O)OC12CCCCC2
label 0
O=C(O)CCCOc1ccc(Cl)cc1Cl
label 0
Oc1ccc(Cl)cc1Cc1ccccc1
label 0
CCOCN(C(=O)CCl)c1c(C)cccc1CC
label 0
CCOC1Oc2ccc(OS(C)(=O)=O)cc2C1(C)C (stereo not given)
label 0
OCCOc1ccccc1
label 0
CNC(=O)/C=C(\C)OP(=O)(OC)OC
label 0

---

Read-out: Vascular cell adhesion molecule 1 (VCAM1), VCAM1 (gene 7412)
assayName: BSK_4H_VCAM1: BioMAP Diversity Plus: 4H Assay for Vascular cell adhesion molecule 1 (VCAM1) Biomarker Activity (AID 2283033);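 as to Outcome: cell-surface VCAM-1 protein measured by ELISA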
experimentalContext: primary human endothelial cells (HUVEC); actives raise or lower the signal
Calls of active or inactive are those of the source. How the source made its calls: active means hit-call score of the fitted dose curve at least 0.9, where 1 is the maximum; inactive means score below 0.9.
Outcome codes: active, inactive

CC[C@H](C)[C@H]1O[C@]2(C=C[C@@H]1C)C[C@@H]1C[C@@H](C/C=C(\C)[C@@H](O[C@H]3C[C@H](OC)[C@@H](O[C@H]4C[C@H](OC)[C@@H](O)[C@H](C)O4)[C@H](C)O3)[C@@H](C)/C=C/C=C3\CO[C@@H]4[C@H](O)C(C)=C[C@@H](C(=O)O1)[C@]34O)O2 (tested in a mixture with another compound)
active
ClC1C(Cl)C(Cl)C(Cl)C(Cl)C1Cl (centres undefined)
inactive
CCC(C)(NC(=O)c1cc(Cl)c(C)c(Cl)c1)C(=O)CCl (centres undefined)
active
N#CN
inactive
CNC(=O)/C=C(\C)OP(=O)(OC)OC
inactive
Oc1ccc(Cl)cc1Cc1ccccc1
active
Clc1ccccc1-c1nnc(-c2ccccc2Cl)nn1
inactive
Oc1cc(Cl)ccc1Oc1ccc(Cl)cc1Cl
active
CC1(C)C(C=C(Cl)Cl)C1C(=O)OC(C#N)c1ccc(F)c(Oc2ccccc2)c1 (centres undefined)
inactive

---

Read-out: Keratin 19 (KRT19), KRT19 (gene 3880)
assayName: LTEA_HepaRG_KRT19: Life Technologies and Expression Analysis (LTEA) Assay for Keratin 19 (KRT19) using HepaRG (AID 2283512)
experimentalContext: mRNA level, 48 h; actives raise or lower the signal
The source made the active and inactive calls. How the source made its calls: active means hit-call score of the fitted dose curve at least 0.9, where 1 is the maximum; inactive means score below 0.9.
Outcome codes: 1.0 (active), 0.0 (inactive)

CCC(C)(C)C(=O)OC1=C(c2ccc(Cl)cc2Cl)C(=O)OC12CCCCC2
0.0
CC(C)OC(=O)Nc1cccc(Cl)c1
0.0
O=C(NC(=O)c1c(F)cccc1F)Nc1ccc(OC(F)(F)C(F)OC(F)(F)F)c(Cl)c1 (stereo unspecified)
0.0
O=[N+]([O-])c1c(Cl)c(Cl)c(Cl)c(Cl)c1Cl
1.0
CCc1ccc(C(=O)NN(C(=O)c2cc(C)cc(C)c2)C(C)(C)C)cc1
0.0
CCC(C)(NC(=O)c1cc(Cl)c(C)c(Cl)c1)C(=O)CCl (stereo unspecified)
1.0

Data credit: PubChem BioAssay (EPA / NIEHS)
